biological target: GTPase HRas (Homo sapiens) (UniProt P01112); assay: Ras wt fluorescent GTP loading blockade – biochemical, wildtype, multiplex bead flow cytometry, dose response (AID 1335); details: bead-based flow cytometry, Bodipy-GTP binding to GST-Ras; at 100 µM (top of the series) unless noted
Sequence (P01112 whole entry, looked up): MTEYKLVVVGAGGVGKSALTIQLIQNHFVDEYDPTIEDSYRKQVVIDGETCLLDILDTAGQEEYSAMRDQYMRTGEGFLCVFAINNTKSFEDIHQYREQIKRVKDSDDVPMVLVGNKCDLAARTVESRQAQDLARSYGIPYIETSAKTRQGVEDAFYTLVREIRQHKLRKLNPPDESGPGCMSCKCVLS
metric-name: GTP binding, percent of control (%)

[[record]]
compound = "COc1ccc2cc(C)c3nnc(SCc4cccnc4)n3c2c1"
numeric_value = 76.7

[[record]]
compound = "Cc1ccccc1OCCn1c(C)c(C(=O)O)c2ccccc21"
numeric_value = 205

[[record]]
compound = "c1ccc(CN2CCN(CCOCCOc3cccc4ccccc34)CC2)cc1"
numeric_value = 79

[[record]]
compound = "O=C(C#CC1CCCCC1)c1ccc([N+](=O)[O-])cc1"
numeric_value = 177

[[record]]
compound = "C/C(=C1/SC(=S)N(CCC(=O)O)C1=O)c1ccc(O)cc1"
numeric_value = 80.9

[[record]]
compound = "O=C(NCc1cccs1)c1cccnc1C(=O)O"
numeric_value = 84.2

[[record]]
compound = "COc1ccc(C2=Nn3c(nnc3-c3ccccn3)SC2)cc1OC"
numeric_value = 44.4

[[record]]
compound = "COc1ccc(-c2csc(C3=C(O)CN(C(C)C)C3=N)n2)cc1OC"
numeric_value = 73.2

[[record]]
compound = "Cc1cc(-c2n[nH]c(=S)n2/N=C/c2cccc([N+](=O)[O-])c2)n[nH]1"
numeric_value = 51

[[record]]
compound = "COc1ccc(CCNc2nc(=S)[nH]c3cc(OC)c(OC)cc23)cc1OC"
numeric_value = 57.9

[[record]]
compound = "COc1ccc(C(=O)Nc2nc3ccccc3[nH]2)cc1S(=O)(=O)N1CCOCC1"
numeric_value = 73.9

[[record]]
compound = "CCCn1cc(CN2CCCC(CNC(=O)c3ccc(F)cc3)C2)c(C)n1 (configuration not stated)"
numeric_value = 85.7

[[record]]
compound = "Cc1cc(C)n2ncc(C(=O)O)c2n1"
numeric_value = 84

[[record]]
compound = "CCCOC(=O)NC1CCS(=O)(=O)C1 (configuration not stated)"
numeric_value = 159

[[record]]
compound = "COc1cccc(/C=C/C(=O)Nc2ccccc2N2CCOCC2)c1"
numeric_value = 83.5

[[record]]
compound = "O=S(=O)(N/N=C\\c1cccnc1)c1ccccc1"
numeric_value = 67.9

[[record]]
compound = "O=C(O)c1ccc(CNCc2ccc(F)cc2)s1"
numeric_value = 84.5


Entry source: PubChem BioAssay
